Hello, the source for this data is patent US20260193326A1, in case you need it.

target: T1, AAV8 (adeno-associated virus 8); test: SPR, AAV amine-coupled to CM5 chip;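 further: nanobodies flowed as analyte at seven concentrations spanning 1–100 nM over immobilized AAV (500–800 RU), kinetic constants derived by fitting the binding curves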
T1 construct: also called adeno-associated virus serotype 8
We begin with a simple list: items and their reported log10(Kd).
Plainly stated, the numbers are log10 of Kd given in nM.

Illustrative cases are given below, each with its answer.
A4-077 (VHH) VHH: VQLQESGGGLVQPGGSLRLSCAASGSMFSINIMGWYRQAPGKQREFVATITRGGSTNYADFVKGRFTISRDNAKNTVYLQMNSLRPEDTAVYYCHVDELRDSSWTTSNLWGQGTQVTVSS ... 0.47
A4-068 (VHH) VHH: VQLQESGGGLVQTGGSLRLSCAASGRAFSLNTMGWYRQAPGKWRELVATVTRGGSTNYAGSVKGRFTISRDNAKNTVYLQMNNLRPEDTAVYYCHVDEVRESSWTTSNLWGQGTQVTVSS ... 2.26
A4-065 (VHH) VHH: VQLQESGGGLVQSGGSLRLSCAASGRNFSLNTVGWYRQAPGKQRELVATVTRGGSTNYAGSVKGRFTISRDNAKNTVYLQMNSLRPEDTAVYYCHVDEVRESSWTTSNLWGQGTQVTVSS ... 2.26

### Prompt Fill in log10(Kd) for record A4-099 (VHH) VHH: VQLQESGGGLVQTGGSLRLSCAASGSSFSINTMGWYRQAPGKWRELVAAVTRGGDTNYAESVKGRFTISRDNGKNTVYLQMNSLRPEDTAVYYCHIDEIRESSWTTSNLWGQGTQVTVSS
### Response 0.41

### Prompt Fill in log10(Kd) for record A4-051 (VHH) VHH: VQLQESGGGLVQPGGSLRLSCAASGSSFVINTMGWYRRAPGKQRELVAAVTRGGSTNYADSVKGRFTISRDNAKNTVYLQMNSLRPEDTAVYYCHVDEVRQSSWTTSNLWGQGTQVTVSS
### Response 2.90

### Prompt Fill in log10(Kd) for record A4-052 (VHH) VHH: VQLQESGGGLVQPGGSLRLSCAASGSIFIINTMGWYRQAPGKQRELVAAVTRGGSTNYADSVKGRFTISRDNAKNTVYLQMNSLRPEDTAVYYCHVDEVRQSSWTTSNLWGQGTQVTVSS
### Response 1.68

### Prompt Fill in log10(Kd) for record A4-061 (VHH) VHH: VQLQESGGGLVQPGGSLRLSCAASGSRFSLNTMGWYRQAPGKQRELVATVTRGGSTNYANSVKGRFTISRDNAKNTVYLQMNSLRPEDTAVYYCHVDEVRQSTWTTSNLWGQGTQVTVSS
### Response 2.72
